system tested: Sodium/glucose cotransporter 2 (Homo sapiens, UniProt P31639)
assay details: Inhibition of human SGLT2 expressed in CHO-K1 cells assessed as reduction in [14C]AMG uptake after 120 mins by scintillation counting method
property measured: EC50 (nM)

Some solved entries appear below for comparison.
CCOc1cn(C[C@H]2O[C@@H](n3cc(Cc4ccc(C5CC5)cc4)c4c(Cl)cccc43)[C@H](O)[C@@H](O)[C@@H]2O)nn1    655
COc1ccc(C(=O)NC[C@H]2O[C@@H](n3cc(Cc4ccc(C5CC5)cc4)c4c(Cl)cccc43)[C@H](O)[C@@H](O)[C@@H]2O)cc1    2370
O=C(CCCl)NC[C@H]1O[C@@H](n2cc(Cc3ccc(C4CC4)cc3)c3c(Cl)cccc32)[C@H](O)[C@@H](O)[C@@H]1O    160
COCCCNC(=S)NC[C@H]1O[C@@H](n2cc(Cc3ccc(C4CC4)cc3)c3c(Cl)cccc32)[C@H](O)[C@@H](O)[C@@H]1O    586

P. O[C@@H]1[C@@H](O)[C@H](n2cc(Cc3ccc(C4CC4)cc3)c3c(Cl)cccc32)O[C@H](Cn2cc(C3CCCC3)nn2)[C@H]1O
Q. O=C(NC[C@H]1O[C@@H](n2cc(Cc3ccc(C4CC4)cc3)c3c(Cl)cccc32)[C@H](O)[C@@H](O)[C@@H]1O)C1CC1
R. CCOC(=O)NC(=O)NC[C@H]1O[C@@H](n2cc(Cc3ccc(C4CC4)cc3)c3c(Cl)cccc32)[C@H](O)[C@@H](O)[C@@H]1O
S. COC(=O)C(=O)NC[C@H]1O[C@@H](n2cc(Cc3ccc(C4CC4)cc3)c3c(Cl)cccc32)[C@H](O)[C@@H](O)[C@@H]1O
Input line: Rank the items in ascending order with respect to EC50. Please respond with the labels ordered as the question requires.
Output line: S, Q, R, P

----------
assay details: Half life in Sprague-Dawley rat at 1.1 mg/kg, po by LC-MS/MS analysis
Format: ADME, organism-based
test context: in vivo
property measured: half-life (h)
Your answer should be a plain number; it is taken to be in h.

Lookup result for CC(=O)NC[C@H]1O[C@@H](n2cc(Cc3ccc(C4CC4)cc3)c3c(Cl)cccc32)[C@H](O)[C@@H](O)[C@@H]1O ; measured half-life: 2.5

----------
system tested: Sodium/glucose cotransporter 2 (Homo sapiens, UniProt P31639)
Sequence (P31639 whole entry): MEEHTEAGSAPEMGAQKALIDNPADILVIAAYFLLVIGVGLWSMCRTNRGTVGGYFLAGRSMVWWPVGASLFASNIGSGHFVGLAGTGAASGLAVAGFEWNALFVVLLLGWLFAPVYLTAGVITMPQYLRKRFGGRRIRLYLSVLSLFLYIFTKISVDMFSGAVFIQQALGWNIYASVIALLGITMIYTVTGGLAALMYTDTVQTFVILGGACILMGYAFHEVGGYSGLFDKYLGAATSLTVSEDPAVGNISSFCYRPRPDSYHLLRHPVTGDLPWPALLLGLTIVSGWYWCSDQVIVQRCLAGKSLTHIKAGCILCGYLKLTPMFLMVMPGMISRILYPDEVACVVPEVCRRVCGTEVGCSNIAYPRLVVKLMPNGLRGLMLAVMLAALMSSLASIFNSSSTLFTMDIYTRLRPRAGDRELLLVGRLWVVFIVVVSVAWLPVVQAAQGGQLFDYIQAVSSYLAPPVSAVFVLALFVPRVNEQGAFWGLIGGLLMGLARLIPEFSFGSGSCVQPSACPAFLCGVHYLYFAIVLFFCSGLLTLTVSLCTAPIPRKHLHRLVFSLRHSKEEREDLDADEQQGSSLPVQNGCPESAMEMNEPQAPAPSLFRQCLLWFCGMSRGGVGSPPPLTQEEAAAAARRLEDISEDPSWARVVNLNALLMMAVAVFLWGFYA
assay details: Inhibition of human SGLT2 expressed in CHO-K1 cells assessed as reduction in [14C]AMG uptake after 120 mins by scintillation counting method
pEC50: −log10 of the molar value.
property measured: pEC50

Some solved entries appear below for comparison.
CCOC(=O)CC(=O)NC[C@H]1O[C@@H](n2cc(Cc3ccc(C4CC4)cc3)c3c(Cl)cccc32)[C@H](O)[C@@H](O)[C@@H]1O    6.93
O=C(NCCCl)NC[C@H]1O[C@@H](n2cc(Cc3ccc(C4CC4)cc3)c3c(Cl)cccc32)[C@H](O)[C@@H](O)[C@@H]1O    6.22
CC(C)C(=O)NC[C@H]1O[C@@H](n2cc(Cc3ccc(C4CC4)cc3)c3c(Cl)cccc32)[C@H](O)[C@@H](O)[C@@H]1O    6.19
CCOC(=O)CNC(=O)NC[C@H]1O[C@@H](n2cc(Cc3ccc(C4CC4)cc3)c3c(Cl)cccc32)[C@H](O)[C@@H](O)[C@@H]1O    6.29
CCOC(=O)CNC(=S)NC[C@H]1O[C@@H](n2cc(Cc3ccc(C4CC4)cc3)c3c(Cl)cccc32)[C@H](O)[C@@H](O)[C@@H]1O    6.54

P. O=C(CCBr)NC[C@H]1O[C@@H](n2cc(Cc3ccc(C4CC4)cc3)c3c(Cl)cccc32)[C@H](O)[C@@H](O)[C@@H]1O
Q. CCOC(=O)C(=O)NC[C@H]1O[C@@H](n2cc(Cc3ccc(C4CC4)cc3)c3c(Cl)cccc32)[C@H](O)[C@@H](O)[C@@H]1O
R. O=C(CSc1ccccc1)NC[C@H]1O[C@@H](n2cc(Cc3ccc(C4CC4)cc3)c3c(Cl)cccc32)[C@H](O)[C@@H](O)[C@@H]1O
Input line: Rank the items in ascending order with respect to pEC50. Please respond with the labels ordered as the question requires.
Output line: R, Q, P

P. CNC(=S)NC[C@H]1O[C@@H](n2cc(Cc3ccc(C4CC4)cc3)c3c(Cl)cccc32)[C@H](O)[C@@H](O)[C@@H]1O
Q. CCOC(=O)CCC(=O)NC[C@H]1O[C@@H](n2cc(Cc3ccc(C4CC4)cc3)c3c(Cl)cccc32)[C@H](O)[C@@H](O)[C@@H]1O
Input line: Higher pEC50: P or Q ? When you have decided, please share the label of that item.
Output line: P
(P: 6.50, Q: 6.23)

I. O=C(O)c1cn(C[C@H]2O[C@@H](n3cc(Cc4ccc(C5CC5)cc4)c4c(Cl)cccc43)[C@H](O)[C@@H](O)[C@@H]2O)nn1
II. O=C(NC[C@H]1O[C@@H](n2cc(Cc3ccc(C4CC4)cc3)c3c(Cl)cccc32)[C@H](O)[C@@H](O)[C@@H]1O)c1ccno1
Input line: # query: argmin of pEC50 over I and II When you have decided, please share the label of that item.
Output line: I
(I: 5.56, II: 6.41)
